Test: In vivo pharmacokinetic evaluation in mice
Conditions: mouse; ICR mice, iv, dose 0.5 mg/kg, plasma

compound | unitAbbrev | AUC(0-inf)
C[C@H]1c2c(nn(-c3ccc(F)c(C4CC4)c3)c2-n2ccn(-c3ccc4c(c3)N(C)C(=O)C43CC3)c2=O)CCN1C(=O)c1cc2cc([C@H]3CCOC(C)(C)C3)ccc2n1[C@@]1(c2noc(=O)[nH]2)C[C@@H]1C [Compound 18] | ng·h/mL | 3000
Cc1cc(-n2nc3c(c2-n2ccn(-c4ccc5c(c4F)N(C)C(=O)C54CC4)c2=O)[C@H](C)N(C(=O)c2cc4cc([C@H]5CCOC(C)(C)C5)ccc4n2[C@@]2(c4noc(=O)[nH]4)C[C@@H]2C)CC3)cc(C)c1F [Compound 14] | ng·h/mL | 2170

Reference source: patent US20260098037A1
